target: T1, Human ROR1 (receptor tyrosine kinase-like orphan receptor 1) (human, UniProt Q01973 30-937); assay: flow cytometry competition, competitor 2 nM Myc-R12 scFv on ROR1/K562 cells (n = 1)
T1 construct: also called hROR1; K562/ROR1
T1 sequence (Q01973 30-937): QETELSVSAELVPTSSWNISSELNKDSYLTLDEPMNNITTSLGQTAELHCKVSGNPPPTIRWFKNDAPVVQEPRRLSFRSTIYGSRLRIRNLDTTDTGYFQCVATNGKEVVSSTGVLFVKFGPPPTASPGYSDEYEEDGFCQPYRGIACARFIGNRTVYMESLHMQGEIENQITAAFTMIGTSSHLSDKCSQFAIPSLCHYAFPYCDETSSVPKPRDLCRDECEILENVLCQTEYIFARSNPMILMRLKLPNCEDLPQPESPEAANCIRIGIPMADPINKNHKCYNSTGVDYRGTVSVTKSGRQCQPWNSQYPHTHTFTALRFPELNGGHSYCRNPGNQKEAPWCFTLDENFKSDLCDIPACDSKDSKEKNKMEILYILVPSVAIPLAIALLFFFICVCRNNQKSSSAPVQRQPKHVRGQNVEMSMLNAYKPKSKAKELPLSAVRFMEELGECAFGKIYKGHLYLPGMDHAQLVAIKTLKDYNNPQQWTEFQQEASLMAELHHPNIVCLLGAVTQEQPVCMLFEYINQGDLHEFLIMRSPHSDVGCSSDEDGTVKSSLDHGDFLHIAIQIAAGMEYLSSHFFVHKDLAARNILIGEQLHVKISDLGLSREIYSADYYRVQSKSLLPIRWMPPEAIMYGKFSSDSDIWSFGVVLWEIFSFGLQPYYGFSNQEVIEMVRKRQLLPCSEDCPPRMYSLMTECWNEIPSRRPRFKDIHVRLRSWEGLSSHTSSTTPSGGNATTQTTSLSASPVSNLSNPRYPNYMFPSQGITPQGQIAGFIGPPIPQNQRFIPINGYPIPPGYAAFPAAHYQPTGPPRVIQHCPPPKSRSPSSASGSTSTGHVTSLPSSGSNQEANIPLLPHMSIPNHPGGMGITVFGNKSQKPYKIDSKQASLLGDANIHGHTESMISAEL
pIC50: −log10 of the molar value.
readout: pIC50

>>> testvalue("Clone V312 (VHH, human VH-only single-domain antibody, no VL) VHH: EVQLVESGGGLVKPRGSLRLSCAASGFTFSNAWMSWVRQAPGKGLEWVGRIKSKTDGGTTDYAAPVKGRFTISRDDSKNTLYLQMNSLKTEDTAVYYCARTSRGRFLEWLLFDYWGQGTLVTVSS")
8.25

[A] Clone V331 (VHH, human VH-only single-domain antibody, no VL) VHH: QVQLQQWGAGLLKPSETLSLTCAVYGGSFSGYYWSWIRQPPGKGLEWIGKINHSGSTNYNPSLKSRVTISVDTSKNQFSLKLSSVTAADTAVYYCARGQIAAHVWGWFDPWGQGTLVTVSS
[B] Clone V282 (VHH, human VH-only single-domain antibody, no VL) VHH: EVQLVESGGGLVQPGGSLRLSCAASGFTFSSYWMSWVRQAPGKGLEWVANIKQDGSEKYYVDSVKGRFTISRDNAKNSLYLQMNSLRAEDTAVYYCARVRGSEYYFDYWGQGTLVTVSS
Ask | For the two items A and B , which reports the higher pIC50 value? Your answer should be the label of the entry you select.
Reply | A
